Biological target: T1, extracellular domain of human PRLR (monomeric, soluble) (human, UniProt P16471 25-234)
T1 construct: also called ECD-PRLR; ECD of PRLR
T1 sequence: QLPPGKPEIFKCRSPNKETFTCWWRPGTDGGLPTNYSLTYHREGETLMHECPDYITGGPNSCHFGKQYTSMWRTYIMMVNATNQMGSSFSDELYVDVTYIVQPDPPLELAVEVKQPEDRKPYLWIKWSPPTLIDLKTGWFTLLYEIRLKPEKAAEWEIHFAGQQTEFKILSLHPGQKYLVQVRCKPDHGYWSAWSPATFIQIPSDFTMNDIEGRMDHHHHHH
Experiment: ELISA: plate coated with human PRLR extracellular domain, Fab-containing E. coli supernatant, anti-flag-HRP, Amplex Red
ASSAY METRIC: binding result

005-C04-L2-1-25-7 (Fab, V domains shown, Maturated 005-C04 variant; Fab in E. coli supernatant, flag-detected) VH: EVQLLESGGGLVQPGGSLRLSCAASGFTFSSYWWHWVRQAPGKGLEWVSDIARASSYTNYADSVKGRFTISRDNSKNTLYLQMNSLRAEDTAVYYCARGLDARRMDYWGQGTLVTVTS VL: QSVLTQPPSASGTPGQRVTISCTGSSSNIGYGYVVHWYQQLPGTAPKLLIYRNNWRPSGVPDRFSGSKSGTSASLAISGLRSEDEADYYCAAWDDSLNGWLFGGGTKLTVLG :: binds
005-C04-19-2 (Fab, V domains shown, Maturated 005-C04 variant; Fab in E. coli supernatant, flag-detected) VH: EVQLLESGGGLVQPGGSLRLSCAASGFTFSSYWNHWVRQAPGKGLEWVSDMARLSPYTNYADSVKGRFTISRDNSKNTLYLQMNSLRAEDTAVYYCARGLDARRMDYWGQGTLVTVTS VL: QSVLTQPPSASGTPGQRVTISCTGSSSNIGYGYVVHWYQQLPGTAPKLLIYRNNQRQSGVPDRFSGSKSGTSASLAISGLRSEDEADYYCAAWDDSLNGWLFGGGTKLTVLG :: binds
005-C04-29-17-7 (Fab, V domains shown, Maturated 005-C04 variant; Fab in E. coli supernatant, flag-detected) VH: EVQLLESGGGLVQPGGSLRLSCAASGFTFSSYWMHWVRQAPGKGLEWVSDISSASSYTNYADSVKGRFTISRDNSKNTLYLQMNSLRAEDTAVYYCARGLDARRMDYWGQGTLVTVTS VL: QSVLTQPPSASGTPGQRVTISCTGSSSNIGAGYVVHWYQQLPGTAPKLLIYRNNQRPSGVPDRFSGSKSGTSASLAISGLRSEDEADYYCAAWDDSLLGWLFGGGTKLTVLG :: binds
